method_description: Displacement of 17beta-[3H]estradiol from rabbit uterine estrogen receptor after 16 to 18 hrs by liquid scintillation counting
Parameters: species or system Oryctolagus cuniculus
Some compounds, each annotated with its measured IC50.

Use these answered entries as a reference point.
C#C[C@]1(O)CC[C@H]2[C@@H]3CCc4cc(OC5CCCC5)ccc4[C@H]3CC[C@@]21C [QUINESTROL]: 6 µM
C#C[C@@]1(O)CC[C@H]2[C@@H]3CCc4cc(O)ccc4[C@H]3CC[C@@]21C: 0.015 µM
C#C[C@]1(O)CC[C@H]2[C@@H]3CCc4cc(O)ccc4[C@H]3CC[C@@]21C [ETHINYL ESTRADIOL]: 0.00024 µM

The record that follows has no IC50 shown yet.
According to the records, this compound C#C[C@]1(O)CC[C@H]2[C@@H]3CCc4cc(OC)ccc4[C@H]3CC[C@@]21C [MESTRANOL] displays IC50 of 0.2 µM
